Where do these numbers come from? They come from patent US12338219B2.

pEC50 values for the molecules below.
# Tested on: parasites (ring stage parasites, parasite growth)
# experimental_details: Parasite LDH growth assay (Parasite Assay), antiparasite potency
# Type: cell-based
# assay_context: 72 h, 72 hours growth, LDH readout; Table 3
# Text: Assessing Antiparasite Potency in a Parasite LDH Growth Assay (Parasite Assay) The parasite stock was maintained at […] in RPMI-Hepes media buffered with sodium bicarbonate and supplemented with […]. […] On the day of assay set up, a blood smear of the parasite culture was Giemsa stained and counted. […]
pEC50: −log10 of the molar value.
quantity_name: pEC50

molecule	quantity_name	experimental_result
COCC[C@H]([C@@H]1C[C@H]1C(=O)N[C@H]1CC(C)(C)Oc2cc(C)c(C)cc21)N1C(=N)NC(C)(C)CC1=O [Example 138A]	pEC50	8.13
COCC[C@H]([C@@H]1C[C@H]1C(=O)NC1CC(C)(C)Oc2c(Cl)cc(Cl)cc21)N1C(=N)NC(C)(C)CC1=O (stereo partly drawn) [Example 106A]	pEC50	8.13
COc1cncc([C@H]([C@@H]2C[C@H]2C(=O)N[C@H]2C[C@H](C(F)(F)F)Oc3ccccc32)N2C(=N)NC(C)(C)CC2=O)c1	pEC50	8.96

---

# Test system: parasites (ring stage parasites, parasite growth)
# experimental_details: Parasite LDH growth assay (Parasite Assay), antiparasite potency
# Format: cell-based
# assay_context: 72 h, 72 hours growth, LDH readout; Table 3
Listed here are compounds together with their documented log10(EC50).
quantity_name: log10(EC50) (log10 of the value in nM)

compound	experimental_result
CCC1(CC)CC(=O)N([C@H](c2cccnc2)[C@@H]2C[C@H]2C(=O)N[C@H]2CCOc3ccccc32)C(=N)N1	0.84
CC1(C)CC(=O)N([C@H](c2cccnc2)[C@@H]2C[C@H]2C(=O)NC2CC(C)(C)Oc3c(F)cc(F)cc32)C(=N)N1 (stereo partly drawn) [Example 122A]	0.36
CC1(C)CC(=O)N([C@@H](c2cccnc2)[C@H]2[C@H](C(=O)N[C@H]3C[C@H](C(F)(F)F)Oc4ccccc43)C2(C)C)C(=N)N1 [Example 43B]	1.57
CCC1(CC)CC(=O)N([C@H](c2cccnc2)[C@@H]2C[C@H]2C(=O)N[C@H]2C[C@H](C(F)(F)F)Oc3ccccc32)C(=N)N1	-0.05
COCC[C@H]([C@@H]1C[C@H]1C(=O)N[C@H]1CCOc2ccccc21)N1C(=N)N[C@](C)(C(C)C)CC1=O	1.64
CCC1(CC)CC(NC(=O)[C@@H]2C[C@H]2[C@@H](CCOC)N2C(=N)NC(C)(C)CC2=O)c2ccccc2O1 (stereo partly drawn) [Example 92A]	0.88

---

# Tested on: parasites (ring stage parasites, parasite growth)
# experimental_details: Parasite LDH growth assay (Parasite Assay), antiparasite potency
# Format: cell-based
# assay_context: 72 h, 72 hours growth, LDH readout; Table 3
Here, each record is paired with measured EC50 data.
quantity_name: EC50 (nM)

compound	experimental_result
CC[C@]1(C)CC(=O)N([C@@H](CCOC)[C@@H]2C[C@H]2C(=O)N[C@H]2C[C@H](C(F)(F)F)Oc3ccccc32)C(=N)N1 [Example 62A]	31
CCC1(CC)CC(=O)N([C@H](CCOC)[C@@H]2C[C@H]2C(=O)N[C@H]2CC(C)(C)Oc3ccccc32)C(=N)N1 [Example 1A]	1
CC1(C)CC(=O)N([C@H](c2cccnc2)[C@@H]2C[C@H]2C(=O)N[C@H]2CC(C)(C)Oc3cc(Cl)ccc32)C(=N)N1 [Example 91A]	0.8

---

# Test system: parasites (ring stage parasites, parasite growth)
# experimental_details: Parasite LDH growth assay (Parasite Assay), antiparasite potency
# Assay type: cell-based
# assay_context: 72 h, 72 hours growth, LDH readout; Table 3
pEC50: −log10 of the molar value.
The threshold is inclusive: pEC50 of exactly 8 counts as Satisfied; values below receive Not satisfied.

compound	class_assignment
CC1(C)CC(=O)N(C[C@@H]2C[C@H]2C(=O)N[C@H]2CC(C3CC3)Oc3ccccc32)C(=N)N1 (stereo partly drawn) [Example 140A]	Not satisfied
COCC[C@H]([C@@H]1C[C@H]1C(=O)N[C@@H]1CC(C)(C)Oc2cc(Cl)ccc21)N1C(=N)NC(C)(C)CC1=O [Example 89B]	Not satisfied
CC1(C)CC(=O)N([C@H](c2cccnc2)[C@H]2[C@H](C(=O)N[C@H]3C[C@H](C(F)(F)F)Oc4ccccc43)C2(C)C)C(=N)N1 [Example 43A]	Satisfied
Cc1ccc2c(c1)OC(C)(C)C[C@@H]2NC(=O)[C@@H]1C[C@H]1[C@@H](c1cccnc1)N1C(=N)NC(C)(C)CC1=O [Example 85B]	Satisfied
CC1(C)CC(=O)N([C@H](c2cccc(C#N)c2)[C@@H]2C[C@H]2C(=O)N[C@H]2CC(C)(C)Oc3ccccc32)C(=N)N1	Satisfied
CC1C[C@H](NC(=O)[C@@H]2C[C@H]2CN2C(=N)NC(C)(C)CC2=O)c2cc(F)ccc2O1 (stereo partly drawn) [Example 139A]	Not satisfied

---

# Test system: parasites (ring stage parasites, parasite growth)
# experimental_details: Parasite LDH growth assay (Parasite Assay), antiparasite potency
# Type: cell-based
# assay_context: 72 h, 72 hours growth, LDH readout; Table 3
pEC50: −log10 of the molar value.
Label rule, in plain words: pEC50 of 7 and up is class 1, under 7 is class 0.

compound	class_assignment
CC1(C)CC(=O)N([C@@H](c2cncc(Cl)c2)[C@@H]2C[C@H]2C(=O)N[C@H]2CC(C)(C)Oc3ccccc32)C(=N)N1 [Example 58A]	class 0
COCC[C@H]([C@@H]1C[C@H]1C(=O)N[C@@H]1CC(C)(C)Oc2c(F)cc(F)cc21)N1C(=N)NC(C)(C)CC1=O [Example 113A]	class 1
COCC[C@H]([C@@H]1C[C@H]1C(=O)N[C@@H]1CC(C)(C)Oc2cc(C)ccc21)N1C(=N)NC(C)(C)CC1=O [Example 83B]	class 1
CC1(C)CC(=O)N([C@H](c2ccc(C#N)cc2)[C@@H]2C[C@H]2C(=O)N[C@@H]2c3ccccc3OC(C)(C)[C@H]2O)C(=N)N1	class 1
CCC1(CC)CC(=O)N(CC2C(C(=O)N[C@H]3CCOc4ccccc43)C2(F)F)C(=N)N1 (stereo partly shown) [Example 15A]	class 0
CC1(C)CC(=O)N(C(c2cccnc2)[C@H]2[C@H](C(=O)N[C@H]3CC(C)(C)Oc4ccccc43)C2(C)C)C(=N)N1 (stereo partly shown) [Example 49A]	class 1
COCC[C@H]([C@@H]1C[C@H]1C(=O)NC1CC(C)(C)Oc2c(Cl)cccc21)N1C(=N)NC(C)(C)CC1=O (stereo partly shown) [Example 112A]	class 1
CC[C@]1(C)CC(=O)N([C@H](CCOC)[C@@H]2C[C@H]2C(=O)N[C@H]2CC(C)(C)Oc3ccc(C)cc32)C(=N)N1	class 1
COCC[C@H]([C@@H]1C[C@H]1C(=O)N[C@@H]1CC(C)(C)Oc2cccc(F)c21)N1C(=N)NC(C)(C)CC1=O [Example 88B]	class 1
CC1(C)CC(=O)N([C@H](c2cncc(Cl)c2)[C@@H]2C[C@H]2C(=O)N[C@H]2CC(C)(C)Oc3ccccc32)C(=N)N1 [Example 58B]	class 1
CCC1(CC)CC(=O)N(C[C@H]2C[C@@H]2C(=O)N[C@@H](C)c2ccccc2)C(=N)N1	class 0
CCC1(CC)CC(=O)N([C@@H](c2cccnc2)[C@@H]2C(C)[C@H]2C(=O)N[C@H]2C[C@H](C(F)(F)F)Oc3ccccc32)C(=N)N1 (stereo partly shown) [Example 55B]	class 0

---

# Tested on: parasites (ring stage parasites, parasite growth)
# experimental_details: Parasite LDH growth assay (Parasite Assay), antiparasite potency
# Format: cell-based
# assay_context: 72 h, 72 hours growth, LDH readout; Table 3
pEC50: −log10 of the molar value.
Decide by pEC50: equal to or exceeding 8 means Satisfied, less means Not satisfied.

molecule	class_assignment
COCC[C@H]([C@@H]1C[C@H]1C(=O)N[C@H]1CC(C)(C)Oc2c(C(F)(F)F)ccc(F)c21)N1C(=N)NC(C)(C)CC1=O [Example 114B]	Satisfied
CC1(C)CC(=O)N(C[C@@H]2C[C@H]2C(=O)N[C@H]2CC(C)(C)Oc3cccc(F)c32)C(=N)N1 [Example 87]	Not satisfied
CCC1(CC)CC(=O)N([C@@H](c2cccnc2)[C@@H]2C(C)[C@H]2C(=O)N[C@H]2CC(C)(C)Oc3ccccc32)C(=N)N1 (stereo partly shown) [Example 56A]	Not satisfied
CCC1(CC)CC(=O)N(C[C@@H]2C(C)[C@H]2C(=O)N[C@@H]2c3ccccc3C[C@H]2O)C(=N)N1 (stereo partly shown) [Example 33]	Not satisfied
COCC[C@H]([C@@H]1C[C@H]1C(=O)N[C@H]1CC(C)(C)Oc2ccc(Cl)cc21)N1C(=N)NC(C)(C)CC1=O [Example 101]	Satisfied
CC1(C)CC(=O)N([C@H](c2cccnc2)[C@@H]2C[C@H]2C(=O)N[C@H]2CC(C)(C)Oc3ccccc32)C(=N)N1 [Example 26]	Satisfied
CCC1(CC)CC(=O)N(C[C@@H]2[C@@H](C(=O)N[C@@H]3c4ccccc4OC(C)(C)[C@H]3O)C2(F)F)C(=N)N1 [Example 18B]	Not satisfied
CCC1(CC)CC(=O)N([C@H](CCOC)[C@@H]2C[C@H]2C(=O)N[C@H]2C[C@H](C(F)(F)F)Oc3ccccc32)C(=N)N1 [Example 14]	Satisfied
CC1(C)CC(=O)N([C@H](c2ccc(C#N)cc2)[C@@H]2C[C@H]2C(=O)N[C@H]2C[C@H](C(F)(F)F)Oc3ccccc32)C(=N)N1 [Example 47B]	Satisfied
COCC[C@H]([C@@H]1C[C@H]1C(=O)N[C@@H]1CC(C)(C)Oc2cc(OC)ccc21)N1C(=N)NC(C)(C)CC1=O [Example 70A]	Not satisfied
CC1(C)CC(=O)N([C@H](c2cccnc2)[C@@H]2C[C@H]2C(=O)N[C@H]2CC(C)(C)Oc3ccc(Cl)cc32)C(=N)N1 [Example 120]	Satisfied
CCC1(CC)CC(=O)N([C@H](c2cccnc2)[C@H]2[C@H](C(=O)N[C@H]3CC(C)(C)Oc4ccccc43)C2(C)C)C(=N)N1 [Example 48A]	Satisfied
